- System: M19-MEL
- assaySummary: NCI tumour cell line growth inhibition, 48 h
Activity calls are given as the source filed them. Cut-off read from the data, not from the text of the source: active = GI50 up to about 1.1 µM and inactive = higher.
GI50 values for the molecules below.

>  <molecule>
CCCCCCCCCCCOC(=S)NC(C)C

>  <assayedSystem>
M19-MEL

>  <GI50>
24.9 µM (inactive)

$$$$
>  <molecule>
COC[C@@H]1[C@H]2OC(C)(C)O[C@H]2C(=O)N1C(=O)c1ccc(OC)cc1

>  <assayedSystem>
M19-MEL

>  <GI50>
> 100 µM (inactive)

$$$$
>  <molecule>
O=S(=O)(c1ccccc1)C1CN2OC1(S(=O)(=O)c1ccccc1)CC2c1ccc(Br)cc1 (stereo unspecified)

>  <assayedSystem>
M19-MEL

>  <GI50>
> 100 µM (inactive)

$$$$
>  <molecule>
COc1ccc(S(=O)(=O)N/N=C/CN2C(=O)c3ccccc3C2=O)cc1OC

>  <assayedSystem>
M19-MEL

>  <GI50>
> 100 µM (inactive)

$$$$
>  <molecule>
C/C(CC(=O)Nc1cc(Cl)c(Cl)cc1Cl)=N\NC(N)=O

>  <assayedSystem>
M19-MEL

>  <GI50>
> 100 µM (inactive)

$$$$

Input: Sample "O=CN/C=C/c1ccccc1O" — what was its GI50?
Output: > 100 µM (inactive)

Input: Sample "CNC(=S)N(C)C(=S)Nn1c(=O)c(C)nn(C)c1=S" — what was its GI50?
Output: > 100 µM (inactive)

Input: Sample COc1ccc(C2CC(C)=Nc3c(O)nc(S)nc3N2)cc1 (stereo unspecified) — what was its GI50?
Output: 16.9 µM (inactive)

Input: Sample "CN(C)CCNc1ccc(CO)c2sc3ccc(O)cc3c(=O)c12" — what was its GI50?
Output: 3.08 µM (inactive)

Input: Sample "O=c1ccc2ccccc2c2ccccc12" — what was its GI50?
Output: 3.15 µM (inactive)

Input: Sample O=C1C(Cl)C(c2ccc(O)cc2)N1n1cnc2ccccc2c1=O (stereo unspecified) — what was its GI50?
Output: 22.2 µM (inactive)

Input: Sample CN1CCOC(c2ccccc2)O1 (stereo unspecified) — what was its GI50?
Output: > 100 µM (inactive)

Input: Sample "CCCCCCCCCCCCCC(=S)N/C=C/OC" — what was its GI50?
Output: 31.1 µM (inactive)

Input: Sample CC1CN1C(=O)NCCCCCCNC(=O)N1CC1C (stereo unspecified) — what was its GI50?
Output: > 100 µM (inactive)

###

- System: UO-31
- assaySummary: NCI tumour cell line growth inhibition, 48 h
Active and inactive are the calls of the source. Rule as the data show it: active = GI50 up to about 1.1 µM and inactive = higher.
Classes to choose from: active, inactive

Sample answers from the record:
>  <compound>
CCOCC(=O)N[C@H]1CCc2cc(OC(=O)COCC)c(OC)c(OC)c2-c2ccc(SC)c(=O)cc21

>  <assayedSystem>
UO-31

>  <class>
active

$$$$
>  <compound>
ClCC[N+]12CC[N+](CCCl)(CC1)C2

>  <assayedSystem>
UO-31

>  <class>
inactive

$$$$
>  <compound>
CC1OC(CC(=O)O)Cc2c(O)c3c(c(O)c21)C(=O)C=C(C1=CC(=O)c2c(O)c4c(c(O)c2C1=O)CC(CC(=O)O)OC4C)C3=O (stereo not given)

>  <assayedSystem>
UO-31

>  <class>
inactive

$$$$
>  <compound>
O=C1/C(=C/c2cccc([N+](=O)[O-])c2)N=C(c2ccccc2)N1c1nc2ccc(Sc3ccccc3)cc2[nH]1

>  <assayedSystem>
UO-31

>  <class>
inactive

$$$$
>  <compound>
NCCN/C(=N\c1ccccc1)Nc1ccccc1

>  <assayedSystem>
UO-31

>  <class>
inactive

$$$$
>  <compound>
C=CC[C@H]1O[Si](C(C)(C)C)(C(C)(C)C)[C@H](C)[C@H]1C

>  <assayedSystem>
UO-31

>  <class>
inactive

$$$$
>  <compound>
SCCSCCCSCCS

>  <assayedSystem>
UO-31

>  <class>
inactive

$$$$
>  <compound>
CN(O)C(=O)c1ccc(OCc2cccc(Cl)c2)cc1

>  <assayedSystem>
UO-31

>  <class>
inactive

$$$$
>  <compound>
COc1ccc2c(c1)CC[C@@H]1[C@@H]2CC[C@]2(C)/C(=N/OCCN3CCCC3)CC[C@@H]12

>  <assayedSystem>
UO-31

>  <class>
inactive

$$$$

Shifting focus to the compound that follows.
Input: Write down the call the test reported for this compound. Item: "C=C(Br)CN(C#N)CC(=C)Br"
Output: inactive
